- Test system: γ-H2AX in HepG2 cells
- Assay Explanation: γ-H2AX MS assay, dose-effect relationship in HepG2 cells
- Condition Context: HepG2 cells, 24 h
Listed below: maximum γ-H2AX value within the selected concentration range values for each entry.
Recorded Metric: maximum γ-H2AX value within the selected concentration range

- Compound: "O=C1[O][Pt]2([NH][C@@H]3CCCC[C@H]3[NH]2)[O]C1=O"
  Value: 7.51
- Compound: "O=P1(N(CCCl)CCCl)NCCCO1 (centres unmarked) [Cyclophosphamide]"
  Value: 7.4
- Compound: "C[C@]12CCC(=O)C(O)=C1CC[C@@H]1[C@@H]2CC[C@]2(C)C(=O)CC[C@@H]12"
  Value: 3.2
- Compound: "COc1cccc2c1C(=O)c1c(O)c3c(c(O)c1C2=O)C[C@@](O)(C(=O)CO)C[C@@H]3O[C@H]1C[C@H](N)[C@H](O[C@@H]2CCCCO2)[C@H](C)O1"
  Value: 22
- Compound: "N.N.O=C([O-])C1(C(=O)[O-])CCC1.[Pt+2]"
  Value: 7.2
